- tested-on: T1, biotinylated CCR8 peptide (human, N-terminal biotin)
- T1 construct: first 34 residues of human CCR8 plus a C-terminal K; also called biotinylated target peptide
- protocol: ELISA, soluble Fab on biotinylated CCR8 peptide captured on streptavidin

{"binder": "3-56 (Fab, V domains shown, soluble Fab from phage display library huFabL-4, Flag tag) VH: EVQLVQSGGGVVQPGRSLRLSCAASGFTFSTYGMHWVRQAPGKGLEWVAVISYDGSKKYYADSVKGRFTISRDNSRNTVYLQMDSLRSEDTAVYYCAKDLSWPVRRLDVWGKGTMVTVSS VL: EIVLTQSPLSLPVTLGQPASISCRSSQSLVYSTGNTYLNWFHQRPGQSPRRLIYQVSNRDSGVPDRFSGSGSGTDFTLKISRVEADDVGVYYCMQGTHWPPTFGQGTKVEIKR", "Optical Density [OD450]": 2.35}
{"binder": "3-65 (Fab, V domains shown, soluble Fab from phage display library huFabL-4, Flag tag) VH: QVTLKESGGGVVQPGRSLRLSCAASEFTFRNYAMHWVRQAPGKGLEWVAVISYDGSNKYYADSVKGRFTISRDISKNMVFLQMNSLRADDTAVYYCARGTFLAYWGQGTLVTVSS VL: EIVLTQSPLSLPVTLGQPASISCRSSQSLVHSDGNTYLSWFQQRPGQSPRRLIYKVSNRDSGVPDRFSGSGSGTDFTLKISRVEAEDVGVYYCMQGIHLPLTFGGGTKLEIKR", "Optical Density [OD450]": 3.29}
{"binder": "3-74 (Fab, V domains shown, soluble Fab from phage display library huFabL-4, Flag tag) VH: EVQLVQSGGGVVQPGRSLRLSCAASGFTFSNYGMHWVRQAPGKGLEWVAIISDDGSNRYYGDSVKGRFTISRDNSKNTLYLQMNSLRAEDTAVYYCAKSLTTSYYYGMDVWGKGTLVTVSS VL: QSALTQPPSASGSPGQSVTISCTGTSSDIGGYIYVSWYQQHPGKAPKLIIYEVHKRPSGVSNRFSASKSANTASLTISGLQAEDEADYYCSSYSSSRTVLFGGGTKLTVLG", "Optical Density [OD450]": 2.81}
